# System: 2B4.11 hybridoma
# measurement notes: Antigen presentation assay (IL-2 produced in response to antigen)
# Format: cell-based
# condition set: peptide 50 μM, 0.5% DMSO; ±SD
measured metric: IL-2 production, % of the solvent only control value

LDRLDLLDLLDRVDG [C4] ... 74.54%±11.22
LDRLDLLDKLDKVDG (cyclo(LDRLDLLDKLDKVDG); ring closure inferred; not fully specified) [C3, cyclic peptide 3] ... 91.69%±25.86

Here's the next entry for you.
INPUT: Item under review: LDKLDKLDKLDKVDG [C2] . Reported IL-2 production, % of the solvent only control value?
OUTPUT: 24.51%±8.81

====

# Tested on: 2B4.11 hybridoma
# measurement notes: Antigen presentation assay (IL-2 produced in response to antigen)
# Assay type: cell-based
# condition set: fourth IL2 column (individual experiment in triplicate); 50 μM; relative to DMSO control (100%)
IL2 %: recorded values
Hi! Could you send only the number? It should be in %, unit omitted.

LDRLDKLDKLDKVDG (cyclo(LDRLDKLDKLDKVDG); ring closure inferred; not fully specified) [C10] ... 54
LDRLDKKDKLDKVDG (cyclo(LDRLDKKDKLDKVDG); ring closure inferred; not fully specified) [C12] ... 33.7
RDLLDLLDLLDKVDG [C7] ... 71
LDRLDKVDG (cyclo(LDRLDKVDG); ring closure inferred; not fully specified) [6AA] ... 33.7

INPUT: Item under review: LDRLDKLDLLDKVDG (cyclo(LDRLDKLDLLDKVDG); ring closure inferred; not fully specified) [C9] . Reported IL2 %?
OUTPUT: 6.75

INPUT: Item under review: LDLLDLLDRLDKVDG (cyclo(LDLLDLLDRLDKVDG); ring closure inferred; not fully specified) [C8] . Reported IL2 %?
OUTPUT: 20.2

====

# measurement notes: Surface plasmon resonance binding to DMPC liposomes
# condition set: SPR, L1 sensor chip, 50 μM, 25° C.
measured metric: binding to DMPC (zwitterionic) liposomes

LDRLDLLDLLDRVDG [C4] ... no binding at all
LDRLDLLDKLDKVDG (cyclo(LDRLDLLDKLDKVDG); ring closure inferred; not fully specified) [C3, cyclic peptide 3] ... no binding at all

====

# measurement notes: in vitro
# Assay type: cell-based
measured metric: viability at 20 h, 50 µM (%)
Hi! Could you send only the number? It should be in %, unit omitted.

INPUT: Item under review: "CC(C)C[C@@H]1NC(=O)[C@@H](CC(C)C)NC(=O)[C@H](CCCNC(=N)N)NC(=O)[C@@H](CC(C)C)NC(=O)CNC(=O)[C@@H](C(C)C)NC(=O)[C@H](CCCCN)NC(=O)[C@@H](CC(C)C)NC(=O)[C@H](CC(C)C)NC(=O)[C@@H](CC(C)C)NC1=O" . Reported viability at 20 h, 50 µM?
OUTPUT: 86.6

====

# System: 2B4.11 hybridoma
# measurement notes: Antigen presentation assay (IL-2 produced in response to antigen)
# Format: cell-based
# condition set: first IL2 column (individual experiment in triplicate); 50 μM; relative to DMSO control (100%)
IL2 %: recorded values
Hi! Could you send only the number? It should be in %, unit omitted.

LDKLDLLDLLDKVDG (cyclo(LDKLDLLDLLDKVDG); ring closure inferred; not fully specified) [C5] ... 73.6
LDRLDKVDG (cyclo(LDRLDKVDG); ring closure inferred; not fully specified) [6AA] ... 9.0
LDRLDKKDKLDKVDG (cyclo(LDRLDKKDKLDKVDG); ring closure inferred; not fully specified) [C12] ... 9.0

INPUT: Form field - read-out: IL2 %; system: 2B4.11 hybridoma; submitted item: LDLLDRLDLLDKVDG (cyclo(LDLLDRLDLLDKVDG); ring closure inferred; not fully specified) [C6]
OUTPUT: 104.5

INPUT: Form field - read-out: IL2 %; system: 2B4.11 hybridoma; submitted item: RDLLDLLDLLDKVDG [C7]
OUTPUT: 29

====

IL2 %: recorded values
# System: 2B4.11 hybridoma
# measurement notes: Antigen presentation assay (IL-2 produced in response to antigen)
# Assay type: cell-based
# condition set: second IL2 column (individual experiment in triplicate); 50 μM; relative to DMSO control (100%)
Hi, when you answer, please include the unit after the number. Thanks!

LDRLDKKDKLDKVDG (cyclo(LDRLDKKDKLDKVDG); ring closure inferred; not fully specified) [C12] ... 21%

INPUT: Item under review: LDKLDKKDKLDKVDG (cyclo(LDKLDKKDKLDKVDG); ring closure inferred; not fully specified) [C11] . Reported IL2 %?
OUTPUT: 88.5%

INPUT: Item under review: LDKLDLLDLLDKVDG (cyclo(LDKLDLLDLLDKVDG); ring closure inferred; not fully specified) [C5] . Reported IL2 %?
OUTPUT: 75%

INPUT: Item under review: LDLLDLLDRLDKVDG (cyclo(LDLLDLLDRLDKVDG); ring closure inferred; not fully specified) [C8] . Reported IL2 %?
OUTPUT: 35%

INPUT: Item under review: LDLLDRLDLLDKVDG (cyclo(LDLLDRLDLLDKVDG); ring closure inferred; not fully specified) [C6] . Reported IL2 %?
OUTPUT: 104%

INPUT: Item under review: LDRLDKLDLLDKVDG (cyclo(LDRLDKLDLLDKVDG); ring closure inferred; not fully specified) [C9] . Reported IL2 %?
OUTPUT: 11.5%

INPUT: Item under review: LDRLDKVDG (cyclo(LDRLDKVDG); ring closure inferred; not fully specified) [6AA] . Reported IL2 %?
OUTPUT: 36.5%

INPUT: Item under review: RDLLDLLDLLDKVDG [C7] . Reported IL2 %?
OUTPUT: 15.4%

====

# System: 2B4.11 hybridoma
# measurement notes: Antigen presentation assay (IL-2 produced in response to antigen)
# Assay type: cell-based
# condition set: third IL2 column (individual experiment in triplicate); 50 μM; relative to DMSO control (100%)
IL2 %: recorded values
Hi! Could you send only the number? It should be in %, unit omitted.

Below, each entry is followed by its recorded IL2 % result.
LDLLDRLDLLDKVDG (cyclo(LDLLDRLDLLDKVDG); ring closure inferred; not fully specified) [C6] ... 89
LDKLDLLDLLDKVDG (cyclo(LDKLDLLDLLDKVDG); ring closure inferred; not fully specified) [C5] ... 85.4

INPUT: Item under review: RDLLDLLDLLDKVDG [C7] . Reported IL2 %?
OUTPUT: 54

INPUT: Item under review: LDKLDKKDKLDKVDG (cyclo(LDKLDKKDKLDKVDG); ring closure inferred; not fully specified) [C11] . Reported IL2 %?
OUTPUT: 104

The values you see were collected from patent US20120077732A1.
